The measurements presented in this section are drawn from PubChem BioAssay.

# test description: MM1S cell viability effects, profiling panel, calcein-AM fluorescence, 48 h, basal (AID 1165);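 further: viability of MM1S multiple myeloma cells under basal unstimulated conditions; test concentration not given here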
# particulars: higher = more signal
outcome measure: z-score

>  <compound>
CC(C)N1CC=CC23O[C@@H]4/C=C\CCCOC(=O)C4[C@H]2C(=O)N(C(C)CO)[C@@H]3C1=O (stereo partly drawn)

>  <reported result>
0.967

$$$$
>  <compound>
CC(C)C[C@@H]1NC(=O)[C@H]2C[C@@H](C(=O)O)[C@@H](c3cccc(OCCO)c3)N2C1=O

>  <reported result>
-1.36

$$$$
>  <compound>
CC1C2C(CCCO)=CC(C3C(=O)N(C(N)=O)C(=O)C23)N1Cc1cccc(OC(F)(F)F)c1 (stereo not drawn)

>  <reported result>
-0.486

$$$$
>  <compound>
CCOC(=O)C[C@H]1[C@H](OC(=O)Cc2ccc3c(c2)OCO3)[C@@H](NC(=O)CC(C)C)c2cc(OCCCO)ccc2N1C(=O)c1ccc2ccccc2n1

>  <reported result>
0.383

$$$$
>  <compound>
O=C1NC(=O)C2C1C=CC(C(O)C(O)CO)N2Nc1ccccn1 (stereo not drawn)

>  <reported result>
0.434

$$$$
>  <compound>
Cc1ccc(S(=O)(=O)N2[C@@H](c3ccccc3)C(C(=O)O)=C[C@H]2C(C)(C)C)cc1

>  <reported result>
0.611

$$$$
>  <compound>
[N-]=[N+]=NCc1ccccc1[C@H]1OC(c2ccc(OCCCO)cc2)=N[C@@]1(Cc1ccccc1N=[N+]=[N-])C(N)=O

>  <reported result>
-1.84

$$$$
>  <compound>
CCN1C(=O)C2CC(=O)C3C(CN(S(=O)(=O)c4ccc(C)cc4)C3c3ccc(C)cc3)C2C1=O (stereo not drawn)

>  <reported result>
1.03

$$$$
